The values you see were collected from PubChem BioAssay (NCI).

protocol-text: NCI Yeast Anticancer Drug Screen. Data for the mec2-1 strain (AID 157)
condition-info: S. cerevisiae mec2-1 strain, at 50.0 µM, stronger effect = higher value
Method: Growth inhibition of yeast strains with defined genetic alterations is measured as a screen for potential anti-cancer activity. Selected strains with alterations in DNA damage repair or cell cycle control were exposed to compounds and growth inhibition was measured relative to vehicle treated controls. The strain used in this assay is mec2-1
The panel holds about 79,000 compounds, 15% with a hit somewhere; the sample as a whole holds those more often.
experimental-endpoint: growth inhibition (%)

INSERT INTO assay_data (molecule, experimental_endpoint, u, recorded_measurement) VALUES
  ('CC1(C)[C@@H]2CC[C@]1(C)[C@H](OC(=O)/C=C/c1ccccc1)C2', 'growth inhibition', '%', -39.8),
  ('Cn1c(=O)c2[nH]c(NCc3ccccc3)nc2n(C)c1=O', 'growth inhibition', '%', -3.9),
  ('Cc1ccc(C)n1N(c1ccccc1)c1ccccc1', 'growth inhibition', '%', 7.1),
  ('O=C(C[n+]1ccncc1)c1ccccc1', 'growth inhibition', '%', -18.7),
  ('CC1(C)OC2COC3(CO)OC(C)(C)OC3C2O1 (centres undefined)', 'growth inhibition', '%', 20.6),
  ('CCOC1CCC=CO1 (centres undefined)', 'growth inhibition', '%', 3.7),
  ('CN(C)c1ccc(/C=C/c2ccccc2)cc1', 'growth inhibition', '%', -6.15),
  ('Cc1ccc(-c2cc(=O)c3cc(C)c(C)c(C(=O)O)c3o2)cc1', 'growth inhibition', '%', 0.25),
  ('O=P(O)(O)c1ccc2c(c1)OCCOCCOCCOCCO2', 'growth inhibition', '%', -10.9),
  ('CN(C)CCNS(=O)(=O)N(C)C', 'growth inhibition', '%', -25.1),
  ('Cc1cc([N+](=O)[O-])ccc1NS(=O)(=O)c1ccccc1', 'growth inhibition', '%', 39.5),
  ('OC1OC2COC(c3ccccc3)OC2C(O)C1O (centres undefined)', 'growth inhibition', '%', -14.5),
  ('COC(=O)[C@H](Cc1c[nH]c2ccccc12)NP(=O)(O)OCC1C=CC(n2cc(C)c(=O)[nH]c2=O)O1 (some centres undefined)', 'growth inhibition', '%', -7.75),
  ('O=C1CC(c2ccc(Cl)cc2)C(=O)O1 (centres undefined)', 'growth inhibition', '%', 12),
  ('CN(C)c1ncnc2c1cnn2-c1ccc(Cl)cc1', 'growth inhibition', '%', -6.2),
  ('CCCCCCOC(=O)c1ccccc1Cl', 'growth inhibition', '%', 9.35),
  ('CCc1c(O)cc(=O)oc1-c1ccc(OC)c(OC)c1', 'growth inhibition', '%', -16.2),
  ('C(=Nc1ccc2c(c1)Cc1ccccc1-2)c1ccccn1', 'growth inhibition', '%', -35.5),
  ('CC(=O)Oc1ccc(C2CC(=O)N(CCN(C)C)C2=O)cc1 (centres undefined)', 'growth inhibition', '%', 30.2),
  ('COc1ccc(C=C2C(=O)OC(C)(C)OC2=O)cc1OC', 'growth inhibition', '%', -8.85),
  ('CCOC(=C\C=C\C1=[N+](C)c2ccccc2C1(C)C)/C=C/C=C1/N(C)c2ccccc2C1(C)C', 'growth inhibition', '%', 87.6),
  ('c1ccc(CN2C3C4N(Cc5ccccc5)C2C2N(Cc5ccccc5)C(C(N2Cc2ccccc2)N4Cc2ccccc2)N3Cc2ccccc2)cc1', 'growth inhibition', '%', 2.35),
  ('C=C1C(=O)[C@@]23CC[C@@H]4[C@@]5(C)CCC[C@@]4(OC5=O)C2(C)CC[C@]1(OC)C3 (some centres undefined)', 'growth inhibition', '%', 92.5),
  ('COc1ccc(C(CCl)(CCl)c2ccc(OC)c(C)c2)cc1C', 'growth inhibition', '%', -74.1),
  ('C=C1C(=O)O[C@H]2C[C@@H]1C(=O)C/C(C)=C/CC/C(C)=C/CC[C@@]2(C)OCSC', 'growth inhibition', '%', -5),
  ('COc1ccc(NC(=S)N(CCC#N)C2CCCCC2)cc1', 'growth inhibition', '%', -24.3),
  ('Cc1cccc(-c2nc(-c3cnccn3)n(Cc3ccccc3)n2)c1', 'growth inhibition', '%', -46.9),
  ('C#CC(C)(C)Nc1ccccc1', 'growth inhibition', '%', 2.9),
  ('COc1ccc2[nH]c(=O)c(CO)c(CO)c2c1', 'growth inhibition', '%', -12.2),
  ('COC(=O)c1cc(-c2cccnc2)[nH]c(=O)c1C#N', 'growth inhibition', '%', -36.6),
  ('CC(C)(C)OC[C@H](O)CC#N', 'growth inhibition', '%', -61.4),
  ('O=[N+]([O-])c1cc(S(=O)(=O)O)cc(S(=O)(=O)O)c1O', 'growth inhibition', '%', 2.6),
  ('Cc1ccc(NCC(O)CN2CCOCC2)cc1 (centres undefined)', 'growth inhibition', '%', 14.3),
  ('O=c1c2n[nH]nc2nc2n1CC(c1ccccc1)S2 (centres undefined)', 'growth inhibition', '%', -77),
  ('O=C(COc1ccccc1)Nc1cccc(C(=O)O)c1', 'growth inhibition', '%', 13.5),
  ('CC(=O)N(Cl)c1ccc(N=Nc2ccccc2)cc1F', 'growth inhibition', '%', 15.1),
  ('Cc1cc2ccccc2n1C', 'growth inhibition', '%', 5.45),
  ('Clc1ccccc1C1N2CCCCC2[C@@H]2c3[nH]c4ccccc4c3CCN12 (some centres undefined)', 'growth inhibition', '%', -1.35),
  ('CC1(C)CCCCC1=O', 'growth inhibition', '%', -1.8),
  ('CCOC(=O)C1=C(C)c2ccccc2OC1C(=O)O (centres undefined)', 'growth inhibition', '%', 11.1),
  ('C=CCCCCOCOCCOC', 'growth inhibition', '%', 17.6),
  ('Cc1nn(-c2ccccc2)c2c1N=C(C(=O)O)CC(c1ccccc1)=N2', 'growth inhibition', '%', 25.9),
  ('O=C1C[CH]([Ge](=[O])[O][Ge](=[O])[CH]2CC(=O)NC(=O)N2)NC(=O)N1 (centres undefined)', 'growth inhibition', '%', 18.2),
  ('COC(=O)NCc1nc2cc3c[nH][nH]c3cc2n1', 'growth inhibition', '%', 0.05),
  ('COc1cc2c3cc1Oc1c(O)c(OC)cc4c1C(Cc1ccc(O)c(c1)Oc1ccc(cc1)CC3N(C)CC2)N(C)CC4 (centres undefined)', 'growth inhibition', '%', -47.2),
  ('C/C(O)=C(\N=Nc1ccccc1)C(N)=O', 'growth inhibition', '%', 7.95),
  ('CC(=O)OC1C(C2COCO2)OCOC1C1COCO1 (centres undefined)', 'growth inhibition', '%', -7.15),
  ('Brc1ccc(-c2[nH]c3ccccc3c2N=Nc2ccccc2)cc1', 'growth inhibition', '%', -9.6),
  ('CC(=O)Oc1c(C)cc(C(=O)CO)cc1C', 'growth inhibition', '%', 15.4);
